TESTED_TARGET: human IL-13 R130Q variant (R110Q of the mature chain) (human) (UniProt P35225)
EXPERIMENT: Biacore SPR, mAb from HEK293
Quick list: pKd per entry.
# pKd: negative log10 of molar concentration; output just the value

{"columns": ["BINDER", "pKd"],
 "data": [
  ["mAb Lc-2B03 + Hc2 M34E, M100L, V106I (antibody, human IgG1, V domains shown) VH: QVTLKESGPVLVKPTETLTLTCTVSGFSLSTYGEGVGWIRQPPGKALEWLAHIWWDDVKRYNPALKSRLTISKDTSKSQVVLTMTNMDPVDTATYYCARLGSDYDIWFDYWGQGTLVTVSS VL: EIVLTQSPATLSLSPGERATLSCRASKSISKYLAWYQQKPGQAPRLLIYSGSTLQSGIPARFSGSGSGTDFTLTISSLEPEDFAVYYCQQHDYPYTFGQGTKLEIKR", 10.94]
]}

Note: attention shifts to another entry.
**Query** Dear colleague, I am looking for the recorded pKd of the following binder: mAb Lc-2B03 + Hc2 M34V, M100L, V106I (antibody, human IgG1, V domains shown) VH: QVTLKESGPVLVKPTETLTLTCTVSGFSLSTYGVGVGWIRQPPGKALEWLAHIWWDDVKRYNPALKSRLTISKDTSKSQVVLTMTNMDPVDTATYYCARLGSDYDIWFDYWGQGTLVTVSS VL: EIVLTQSPATLSLSPGERATLSCRASKSISKYLAWYQQKPGQAPRLLIYSGSTLQSGIPARFSGSGSGTDFTLTISSLEPEDFAVYYCQQHDYPYTFGQGTKLEIKR
**Result** 10.60
